experimentalDetails: Diabetogenic activity (blood glucose concentration after intravenous administration)
Format: in vivo, male Wister rats
conditions: 60 mg/kg i.v., 0 hr after treatment
Description: 40-96 mg/kg of the test compounds were administered intravenously to starved male Wister rats weighing 240-260 g each, and the blood glucose concentrations of the test animals were estimated by the glucose exidase method [L. L. Saloman et al: Anal. Chem., 31 (1959), 453], in which test the compounds were dissolved in physiological saline solution just before administration. […]
propertyName: Blood Glucose Concentration (mg/dL)
Numbers only, in mg/dL.

> print(dat)
                                   compound    uom  valuereported
1  CO[C@H]1O[C@H](CO)[C@@H](O)[C@H](O)[C@H]1NC(=O)N(CCCl)N=O  mg/dL           70.4

Give Blood Glucose Concentration for each listed item.
1. O=NN(CCCl)C(=O)NC[C@H]1OC(O)[C@H](O)[C@@H](O)[C@@H]1O (some centres unmarked)
2. O=NN(CCCl)C(=O)N[C@H]1C(O)O[C@H](CO)[C@@H](O)[C@@H]1O (some centres unmarked)
3. CO[C@H]1O[C@H](CNC(=O)N(CCCl)N=O)[C@@H](O)[C@H](O)[C@H]1O
4. O=NN(CCCl)C(=O)N[C@@H]1O[C@H](CO)[C@@H](O)[C@H](O)[C@H]1O

Result:
72.0
68.2
71.8
67.3

###

experimentalDetails: Diabetogenic activity (blood glucose concentration after intravenous administration)
Format: in vivo, male Wister rats
conditions: 40 mg/kg i.v., 10 hr after treatment
Exercise: state measured Blood Glucose Concentration for each of the compounds provided.
Answers are plain numbers, in mg/dL.

Please review the entries below; each comes with its answer.
> print(dat)
                                   compound  valuereported
1  O=NN(CCCl)C(=O)N[C@@H]1O[C@H](CO)[C@@H](O)[C@H](O)[C@H]1O [GANU]           98.2
2  O=NN(CCCl)C(=O)N[C@H]1C(O)O[C@H](CO)[C@@H](O)[C@@H]1O (some centres unmarked) [DCNU]          110.2
3  CO[C@H]1O[C@H](CO)[C@@H](O)[C@H](O)[C@H]1NC(=O)N(CCCl)N=O [Example 2MCαG]           68.3
4  CO[C@H]1O[C@H](CNC(=O)N(CCCl)N=O)[C@@H](O)[C@H](O)[C@H]1O [Example 6MCαG]           79.4

Please turn your attention to the following entry.
Query: Reported Blood Glucose Concentration for O=NN(CCCl)C(=O)NC[C@H]1OC(O)[C@H](O)[C@@H](O)[C@@H]1O (some centres unmarked) [Example 6DCNU] : what is it?
Result: 68.3

###

experimentalDetails: Diabetogenic activity (blood glucose concentration after intravenous administration)
Assay type: in vivo, male Wister rats
conditions: 60 mg/kg i.v., 7 hr after treatment
propertyName: Blood Glucose Concentration (mg/dL)
Answers are plain numbers, in mg/dL.

Give Blood Glucose Concentration for each listed item.
1. CO[C@H]1O[C@H](CO)[C@@H](O)[C@H](O)[C@H]1NC(=O)N(CCCl)N=O
2. O=NN(CCCl)C(=O)NC[C@H]1OC(O)[C@H](O)[C@@H](O)[C@@H]1O (stereo partly shown)
3. O=NN(CCCl)C(=O)N[C@H]1C(O)O[C@H](CO)[C@@H](O)[C@@H]1O (stereo partly shown)
4. O=NN(CCCl)C(=O)N[C@@H]1O[C@H](CO)[C@@H](O)[C@H](O)[C@H]1O

Result:
[68.7, 76.8, 92.1, 95.4]
